Each entry below carries its reported Kd.
Biological target: recombinant human HGF (R&D Systems, Catalog No. 294-HGN-025) (human, UniProt P14210 32-728)
Sequence (P14210 32-728): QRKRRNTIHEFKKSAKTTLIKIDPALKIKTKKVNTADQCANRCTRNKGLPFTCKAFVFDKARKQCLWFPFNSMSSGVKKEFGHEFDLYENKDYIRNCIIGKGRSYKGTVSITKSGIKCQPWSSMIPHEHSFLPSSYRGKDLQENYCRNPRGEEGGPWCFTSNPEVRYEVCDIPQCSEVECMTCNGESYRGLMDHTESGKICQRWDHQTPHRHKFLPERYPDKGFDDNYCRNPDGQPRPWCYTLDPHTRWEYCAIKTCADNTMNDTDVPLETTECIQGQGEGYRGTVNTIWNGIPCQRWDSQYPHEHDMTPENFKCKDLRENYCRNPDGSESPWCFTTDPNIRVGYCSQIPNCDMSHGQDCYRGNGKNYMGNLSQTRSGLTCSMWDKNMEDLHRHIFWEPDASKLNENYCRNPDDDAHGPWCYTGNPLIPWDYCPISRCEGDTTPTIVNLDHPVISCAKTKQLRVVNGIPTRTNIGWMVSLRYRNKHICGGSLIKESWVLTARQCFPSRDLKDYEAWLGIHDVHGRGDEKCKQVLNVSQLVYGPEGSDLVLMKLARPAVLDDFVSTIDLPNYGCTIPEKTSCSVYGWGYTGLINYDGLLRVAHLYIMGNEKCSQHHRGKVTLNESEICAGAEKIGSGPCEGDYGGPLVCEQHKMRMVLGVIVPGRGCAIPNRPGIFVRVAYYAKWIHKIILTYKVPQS
Test: SPR
Report only the number, with the unit nM understood.

[
  {
    "binder": "Hu2B8_Kv1-39.1 / Hu2B8_Hv5-a.1 (antibody, V domains shown) VH: EVQLVQSGAEVKKPGESLRISCKGSGYSFTTYWMHWVRQMPGKGLEWMGEINPTNGHTNYNPSFQGHVTISADKSISTAYLQWSSLKASDTAMYYCARNYVGSIFDYWGQGTLVTVSS VL: DIQMTQSPSSLSASVGDRVTITCKASENVVSYVSWYQQKPGKAPKLLIYGASNRNTGVPSRFSGSGSGTDFTLTISSLQPEDFATYYCGQSYNYPYTFGQGTKLEIKR",
    "Kd [nM]": 0.0147
  },
  {
    "binder": "Hu2B8_Kv3-15.1 / Chimeric 2B8 (antibody, V domains shown) VH: QVQLQQPGAELVKPGTSVKLSCKASGYTFTTYWMHWVNQRPGQGLEWIGEINPTNGHTNYNEKFKSKATLTVDKSSSTAYMQLSSLTSEDSAVYYCARNYVGSIFDYWGQGTTLTVSS VL: EIVMTQSPATLSVSPGERATLSCKASENVVSYVSWYQQKPGQAPRLLIYGASNRNTGIPARFSGSGSGTEFTLTISSLQSEDFAVYYCGQSYNYPYTFGQGTKLEIKR",
    "Kd [nM]": 0.0055
  }
]

Now look at this entry.
stdin: // returns reported Kd for input chimeric 2B8 (antibody, V domains shown) VH: QVQLQQPGAELVKPGTSVKLSCKASGYTFTTYWMHWVNQRPGQGLEWIGEINPTNGHTNYNEKFKSKATLTVDKSSSTAYMQLSSLTSEDSAVYYCARNYVGSIFDYWGQGTTLTVSS VL: NIVMTQSPKSMSMSVGERVTLSCKASENVVSYVSWYQQKPAQSPKLLIYGASNRNTGVPDRFTGSGSATDFTLTISSVRAEDLADYHCGQSYNYPYTFGGGTRLEIKR
stdout: 0.0116

Provenance of the data: patent US20100173362A1
